Hey, just so you know, these numbers are from patent US8623414B2.

- protocolDescription: Example 5 Supplemental: turbidity meter (Nephla) of compositions with active agents over time (Table 12a)
- Format: physicochemical
- conditionSummary: SMA 3000P (hydrolysed) 2.5%, lipid 90H 1%, S LPC 0.01%, active agent 0.1%; pH 7
experimentalEndpoint: Turbidity at pH 7 (FNU)
// note: answer is a bare numeric in FNU

Known results for compounds:
INSERT INTO measurements (compound, testvalue) VALUES
  ('CCCC(=O)O[C@]1(C(=O)CCl)[C@H](C)C[C@@H]2[C@@H]3CCC4=CC(=O)C=C[C@]4(C)[C@]3(F)C(=O)C[C@@]21C', 63.0),
  ('COc1ccc(C(=O)c2ccccc2)c(O)c1', 31.00),
  ('CC(C)CCC[C@@H](C)[C@H]1CC[C@H]2[C@@H]3CC=C4C[C@@H](OS(=O)(=O)O)CC[C@]4(C)[C@H]3CC[C@]12C [Chol Sulphate]', 17.81),
  ('CCCC(=O)O[C@]1(C(=O)CO)CC[C@H]2[C@@H]3CCC4=CC(=O)CC[C@]4(C)[C@H]3[C@@H](O)C[C@@]21C', 33.1),
  ('CC(C)CCC[C@@H](C)[C@H]1CC[C@H]2C3=CC=C4C[C@@H](O)CC[C@]4(C)[C@H]3CC[C@]12C [7-DHC, 7-Dehydrocholesterol]', 7.28);

Consider now this further compound.
### Prompt Can you share its Turbidity at pH 7 (FNU)? I mean this compound: CC(=O)N1CCN(c2ccc(OCC3COC(Cn4ccnc4)(c4ccc(Cl)cc4Cl)O3)cc2)CC1 (stereo not drawn) [Keta., Ketaconazole, reference compound]
### Response 40.75

* * *

Reported values of Turbidity at pH 7 (FNU) for individual entries
- protocolDescription: Example 5 Supplemental: turbidity meter (Nephla) of compositions with active agents over time (Table 12a)
- Type: physicochemical
- conditionSummary: SMA 3000P (hydrolysed) 2.5%, lipid 90H 1%, S LPC 0.01%, active agent 0.25%; pH 7
// note: answer is a bare numeric in FNU

Known results for compounds:
INSERT INTO results (compound, uom, testvalue) VALUES
  ('CC(=O)OCC(=O)[C@@]1(O)CC[C@H]2[C@@H]3CCC4=CC(=O)CC[C@]4(C)[C@H]3C(=O)C[C@@]21C [Cort. A., Cortisone Acetate, reference compound]', 'FNU', 14.28),
  ('CC(C)[C@@H]1CC[C@@H](C)C[C@H]1OC(=O)C1CCC(=O)N1 (stereo partly drawn)', 'FNU', 28.9);

Consider now this further compound.
### Prompt Can you share its Turbidity at pH 7 (FNU)? I mean this compound: C[C@]12CCC(=O)C=C1CC[C@@H]1[C@@H]2[C@@H](O)C[C@@]2(C)[C@H]1CC[C@]2(O)C(=O)CO [HC, Hydrocortisone, reference compound]
### Response 9.09

* * *

Reported values of Turbidity at pH 7 (FNU) for individual entries
- protocolDescription: Example 5 Supplemental: turbidity meter (Nephla) of compositions with active agents over time (Table 12a)
- Format: physicochemical
- conditionSummary: SMA 3000P (hydrolysed) 2.5%, lipid 90H 1%, S LPC 0.01%, active agent 0.1%; pH 7
- Procedure: The turbidity meter was calibrated prior to use, with two known standards (0 and 40 FNU). After the final stage of sample preparation (i.e. adjustment of the pH to physiological) samples were course filtered through Whatman 541 filter paper to remove any gross matter which could interfere with turbidity measurement. Immediately after filtration the first turbidity measurement was taken. Mixtures were stored at 4° C. following the initial measurement, and remeasured at later time points.
// note: answer is a bare numeric in FNU

Known results for molecules:
INSERT INTO results (molecule, uom, testvalue) VALUES
  ('CCC(=O)O[C@]1(C(=O)CCl)[C@@H](C)C[C@H]2[C@@H]3CCC4=CC(=O)C=C[C@]4(C)[C@@]3(F)[C@@H](O)C[C@@]21C [Clo. P, Clobetasol Propionate, reference compound]', 'FNU', 50),
  ('Clc1ccccc1C(c1ccccc1)(c1ccccc1)n1ccnc1 [Clot., Clotrimazole, reference compound]', 'FNU', 5.91),
  ('CC(Cc1ccc(O)c(O)c1)C(C)Cc1ccc(O)c(O)c1 (centres unmarked) [NDGA, Nordihydroguaiaretic acid]', 'FNU', 27.7),
  ('COc1ccc(C(=O)CC(=O)c2ccc(C(C)(C)C)cc2)cc1', 'FNU', 62.0),
  ('C[C@@H]1[C@H](O)[C@@H](C)/C=C/C=C/CC/C=C/C=C/C=C/C=C/C(O[C@H]2O[C@H](C)[C@@H](O)[C@H](N)[C@@H]2O)CC2O[C@](O)(CC(O)C(O)CCC(O)CC(O)CC(O)CC(=O)O[C@H]1C)CC(O)C2C(=O)O (some centres unmarked) [Nystatin, reference compound]', 'FNU', 6.93);

### Prompt Can you share its Turbidity at pH 7 (FNU)? I mean this molecule: CCCCC(CC)COC(=O)C=Cc1ccc(OC)cc1 (centres unmarked) [Eusolex 2292, Octyl methoxycinimate]
### Response 24.50

### Prompt What do we get for NC[C@@H]1O[C@H](O[C@H]2[C@@H](O)[C@H](O[C@@H]3[C@@H](O)[C@H](N)C[C@H](N)[C@H]3O[C@H]3O[C@H](CN)[C@@H](O)[C@H](O)[C@H]3N)O[C@@H]2CO)[C@H](N)[C@@H](O)[C@@H]1O.O=S(=O)(O)O [Neo. Sulphate, Neomycin Sulphate, reference compound] ?
### Response 42.80

### Prompt What do we get for "Nc1ccc(C(=O)O)cc1" ?
### Response 23.20

* * *

- protocolDescription: Example 5: compositions of the invention to solubilise exemplary active agents (visual clarity, pH on clearing, clarity at pH 7)
- conditionSummary: SMA 3000HNa 2.5%, 90H 1%, S LPC 0.01%, active agent 0.1%
Reported values of pH on clearing for individual entries
Enter a number only.

Known results for molecules:
INSERT INTO assay_data (molecule, experimentalendpoint, testvalue) VALUES
  ('CCCCCCCCCCCCCCCC(=O)OC[C@H](O)[C@H]1OC(=O)C(O)=C1O [Asc-P, L-ascorbyl palmitate]', 'pH on clearing', 8.87),
  ('CC(C)CCC[C@@H](C)[C@H]1CC[C@H]2[C@@H]3CC=C4C[C@@H](O)CC[C@]4(C)[C@H]3CC[C@]12C', 'pH on clearing', 8.95),
  ('CCCCCCCCCCCCCCCC(=O)OC[C@H](O)[C@H]1OC(=O)C(OC(=O)CCCCCCCCCCCCCCC)=C1O', 'pH on clearing', 8.89);

### Prompt Can you share its pH on clearing? I mean this molecule: "CC1=C(/C=C/C(C)=C/C=C/C(C)=C/C=C/C=C(C)/C=C/C=C(C)/C=C/C2=C(C)CCCC2(C)C)C(C)(C)CCC1"
### Response 8.83

### Prompt What do we get for CCCCCCCCC(CCCCCC)C(=O)OC[C@H](OC(=O)C(CCCCCC)CCCCCCCC)[C@H]1OC(=O)C(OC(=O)C(CCCCCC)CCCCCCCC)=C1OC(=O)C(CCCCCC)CCCCCCCC (some centres unmarked) ?
### Response 8.89

* * *

- protocolDescription: Example 5 Supplemental: turbidity meter (Nephla) of compositions with active agents over time (Table 12a)
- Assay type: physicochemical
- conditionSummary: SMA 3000P (hydrolysed) 2.5%, lipid 90H 1%, S LPC 0.01%, active agent 0.25%; pH 7
Reported values of Turbidity at pH 7 (FNU) for individual entries
// note: answer is a bare numeric in FNU

Known results for compounds:
INSERT INTO results (compound, testvalue) VALUES
  ('CC(=O)OCC(=O)[C@@]1(O)[C@H](C)C[C@H]2[C@@H]3CCC4=CC(=O)C=C[C@]4(C)[C@@]3(F)[C@@H](O)C[C@@]21C [DEX A.A., Dexamethasone Acetate Anhydrous, reference compound]', 10.52),
  ('C=C1CC[C@H](O)C/C1=C/C=C1\CCC[C@]2(C)[C@@H]([C@H](C)CCCC(C)C)CC[C@@H]12 [Vitamin D3, Cholecalciferol, reference compound]', 19.78);

### Prompt Can you share its Turbidity at pH 7 (FNU)? I mean this compound: CC(=O)OCC(=O)[C@@]1(O)CC[C@H]2[C@@H]3CCC4=CC(=O)CC[C@]4(C)[C@H]3[C@@H](O)C[C@@]21C [HC A, Hydrocortisone Acetate, reference compound]
### Response 39.6

* * *

- protocolDescription: Example 5 Supplemental: turbidity meter (Nephla) of compositions with active agents over time (Table 12a)
- Format: physicochemical
- conditionSummary: SMA 3000P (hydrolysed) 2.5%, lipid 90H 1%, S LPC 0.01%, active agent 0.25%
Reported values of pH on clearing for individual entries
Enter a number only.

### Prompt Can you share its pH on clearing? I mean this compound: CC(=O)OCC(=O)[C@@]1(O)CC[C@H]2[C@@H]3CCC4=CC(=O)CC[C@]4(C)[C@H]3C(=O)C[C@@]21C [Cort. A., Cortisone Acetate, reference compound]
### Response 8.87

### Prompt What do we get for CC(=O)OCC(=O)[C@@]1(O)CC[C@H]2[C@@H]3CCC4=CC(=O)CC[C@]4(C)[C@H]3[C@@H](O)C[C@@]21C [HC A, Hydrocortisone Acetate, reference compound] ?
### Response 8.92

### Prompt What do we get for C=C1CC[C@H](O)C/C1=C/C=C1\CCC[C@]2(C)[C@@H]([C@H](C)CCCC(C)C)CC[C@@H]12 [Vitamin D3, Cholecalciferol, reference compound] ?
### Response 8.59
